EXPERIMENT: In vivo pharmacokinetics after oral administration
Design: species or system Sprague-Dawley rats
RECORDED_CONDITIONS: male, Sprague-Dawley, rat, plasma, rats, drug dose 2.5 mg, read-out: MRT0-∞
PROPERTY: MRT inf (h)
Give bare numbers, in h.

The recorded MRT inf for COCCOC(=O)C1=C(C)NC(C)=C(C(=O)OC(C)C)C1c1cccc([N+](=O)[O-])c1 (stereo not shown) is 8.84
